Cited source for all entries: patent US11541050B2

- target_system: human TLR7 (wild type sequence) (Homo sapiens)
- Construct: expressed in transfected cells; host or cells: HEK293
- Sequence (Q9NYK1 27-1049): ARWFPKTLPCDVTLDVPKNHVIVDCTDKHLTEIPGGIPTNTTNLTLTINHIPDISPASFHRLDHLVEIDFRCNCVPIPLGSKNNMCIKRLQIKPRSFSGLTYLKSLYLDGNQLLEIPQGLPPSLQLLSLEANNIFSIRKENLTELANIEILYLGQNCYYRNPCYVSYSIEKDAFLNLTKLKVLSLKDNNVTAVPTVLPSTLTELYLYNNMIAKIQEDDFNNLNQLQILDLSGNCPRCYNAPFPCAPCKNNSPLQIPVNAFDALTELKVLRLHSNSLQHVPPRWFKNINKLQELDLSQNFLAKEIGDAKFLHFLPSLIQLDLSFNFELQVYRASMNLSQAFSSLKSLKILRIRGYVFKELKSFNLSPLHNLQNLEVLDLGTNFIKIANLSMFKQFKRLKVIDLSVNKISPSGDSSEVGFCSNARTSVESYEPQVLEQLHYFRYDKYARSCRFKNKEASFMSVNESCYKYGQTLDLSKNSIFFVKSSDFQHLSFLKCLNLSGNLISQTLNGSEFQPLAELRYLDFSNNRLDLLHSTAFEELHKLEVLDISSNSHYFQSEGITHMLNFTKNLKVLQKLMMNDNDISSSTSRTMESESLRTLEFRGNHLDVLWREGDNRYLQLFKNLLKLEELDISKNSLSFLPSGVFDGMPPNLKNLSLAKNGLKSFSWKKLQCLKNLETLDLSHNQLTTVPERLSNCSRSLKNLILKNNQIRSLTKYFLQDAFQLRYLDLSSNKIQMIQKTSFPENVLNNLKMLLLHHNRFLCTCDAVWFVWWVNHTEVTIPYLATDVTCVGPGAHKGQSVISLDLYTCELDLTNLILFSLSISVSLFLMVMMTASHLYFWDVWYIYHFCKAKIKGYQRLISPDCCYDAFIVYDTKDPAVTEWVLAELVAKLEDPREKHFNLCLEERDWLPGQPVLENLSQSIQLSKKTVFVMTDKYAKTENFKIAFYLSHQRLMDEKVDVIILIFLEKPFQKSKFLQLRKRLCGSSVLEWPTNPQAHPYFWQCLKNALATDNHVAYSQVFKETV
- protocol_text: TLR7 cellular NFκB-luc reporter assay, wild type TLR7
- Type: cell-based
- Set-up: unit not given here
- measurement_setup: lowest effective concentration, wild type TLR7 (compounds 74 onward)

compound: CCCCNc1nc(N)ncc1OCCCc1cc(OC)cc(OC)c1
target_system: human TLR7 (wild type sequence) (Homo sapiens)
TLR 7 wt LEC: 2.520
--
compound: CCCCNc1nc(N)ncc1OCc1cc(OC2CCCC2)c(OC)cn1
target_system: human TLR7 (wild type sequence) (Homo sapiens)
TLR 7 wt LEC: 0.222
--
compound: CCCCNc1nc(N)ncc1OCc1cc2ccccc2cn1
target_system: human TLR7 (wild type sequence) (Homo sapiens)
TLR 7 wt LEC: 0.128
--
compound: CCCCNc1nc(N)ncc1OCc1csc(C)n1
target_system: human TLR7 (wild type sequence) (Homo sapiens)
TLR 7 wt LEC: 0.286
--
compound: CCC[C@@H](CO)Nc1nc(N)ncc1OCc1nccc2ccccc12
target_system: human TLR7 (wild type sequence) (Homo sapiens)
TLR 7 wt LEC: 0.003
--
compound: CCCCNc1nc(N)ncc1OCc1cccc(C(N)=O)n1
target_system: human TLR7 (wild type sequence) (Homo sapiens)
TLR 7 wt LEC: 0.868
--
compound: CCCC(C)Nc1nc(N)ncc1OCc1ccc2ccccc2n1 (centres unmarked)
target_system: human TLR7 (wild type sequence) (Homo sapiens)
TLR 7 wt LEC: 0.743
--
compound: CCCCNc1nc(N)ncc1OCCOc1cccnc1
target_system: human TLR7 (wild type sequence) (Homo sapiens)
TLR 7 wt LEC: 1.810
--
compound: CCCC[C@@H](CCO)Nc1nc(N)ncc1OCc1cc(C)nn1C
target_system: human TLR7 (wild type sequence) (Homo sapiens)
TLR 7 wt LEC: 0.101
--
compound: CCCCNc1nc(N)ncc1OCCOc1ccccc1C(F)(F)F
target_system: human TLR7 (wild type sequence) (Homo sapiens)
TLR 7 wt LEC: 1.700
--
compound: CCCCNc1nc(N)ncc1OCc1cccc(C)n1
target_system: human TLR7 (wild type sequence) (Homo sapiens)
TLR 7 wt LEC: 0.118
--
compound: CCCC[C@@H](CCOC(=O)NCC)Nc1nc(N)ncc1OC
target_system: human TLR7 (wild type sequence) (Homo sapiens)
TLR 7 wt LEC: 1.670
--
compound: CCCC[C@@H](CO)Nc1nc(N)ncc1OCc1ncc(C)c(OC)c1C
target_system: human TLR7 (wild type sequence) (Homo sapiens)
TLR 7 wt LEC: 0.031
--
compound: CC[C@H](C)[C@@H](CO)Nc1nc(N)ncc1OCCCc1ccccc1
target_system: human TLR7 (wild type sequence) (Homo sapiens)
TLR 7 wt LEC: 6.180
--
compound: CCCCNc1nc(N)ncc1OCc1cccc(CO)c1
target_system: human TLR7 (wild type sequence) (Homo sapiens)
TLR 7 wt LEC: 0.449
--
compound: CCCCNc1nc(N)ncc1OCCCc1ccc(OC)c(OC)c1
target_system: human TLR7 (wild type sequence) (Homo sapiens)
TLR 7 wt LEC: 0.713
--
compound: CCCCNc1nc(N)ncc1OCc1nn(C)c2ccccc12
target_system: human TLR7 (wild type sequence) (Homo sapiens)
TLR 7 wt LEC: 0.014
--
compound: CCCCNc1nc(N)ncc1OCc1ccc(C(F)(F)F)nc1
target_system: human TLR7 (wild type sequence) (Homo sapiens)
TLR 7 wt LEC: 0.797
--
compound: CCC[C@@H](CCO)Nc1nc(N)ncc1OCc1ccc2ccccc2n1
target_system: human TLR7 (wild type sequence) (Homo sapiens)
TLR 7 wt LEC: 0.237
--
compound: CCCC[C@H](Nc1nc(N)ncc1OCCCc1ccccc1)C(=O)OC
target_system: human TLR7 (wild type sequence) (Homo sapiens)
TLR 7 wt LEC: 4.420
